STUDY_TARGET: beta-amyloid 42 (Aβ42) (Homo sapiens, UniProt P05067)
Construct: Beta-amyloid 42 (Aβ42) was dissolved in dimethylsulfoxide (DMSO)
Sequence (P05067 672-713 limits assumed): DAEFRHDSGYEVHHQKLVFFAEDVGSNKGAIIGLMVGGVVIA
TEST: Inhibitory effect on the formation of beta-amyloid fibrils in vitro (ThT fluorescence assay)
Assay type: biochemical
RUN_PARAMETERS: In vitro ThT analysis (Aβ42: 25 μM); experiment of Table 1
Recorded pIC50 values for a group of molecules are listed next.
Please treat pIC50 as minus the base-10 logarithm of the molar concentration.

Below, each entry is followed by its recorded pIC50 result.
COc1ccc2cc(C=Cc3ccc(N)cc3)oc2c1 | 5.26
CN(C)c1ccc(C=Cc2cc3ccc(I)cc3o2)cc1 | 5.55
CNc1ccc(C=Cc2cc3ccc(OC)cc3o2)cc1 | 6.10
COc1ccc2oc(C=Cc3ccc(N(C)C)cc3)cc2c1 | 6.09
COc1ccc2oc(C=Cc3ccc(N)cc3)cc2c1 | 6.09

Ask: So what pIC50 did Cc1ccc2cc(C=Cc3ccc(N(C)C)cc3)oc2c1 get with beta-amyloid 42 (Aβ42) (Homo sapiens, UniProt P05067)?
Result: 5.46

Ask: Record lookup: for beta-amyloid 42 (Aβ42) (Homo sapiens, UniProt P05067), what pIC50 belongs to CN(C)c1ccc(C=Cc2cc3cc(I)ccc3o2)cc1 ?
Result: 6.77

Ask: Form entry - test system: beta-amyloid 42 (Aβ42) (Homo sapiens, UniProt P05067); read-out: pIC50; molecule: CN(C)c1ccc(C=Cc2cc3ccc(O)cc3o2)cc1
Result: 5.44

Ask: Form entry - test system: beta-amyloid 42 (Aβ42) (Homo sapiens, UniProt P05067); read-out: pIC50; molecule: COc1ccc2cc(C=Cc3ccc(N(C)C)cc3)oc2c1
Result: 7.15

----------
STUDY_TARGET: beta-amyloid 42 (Aβ42) (Homo sapiens, UniProt P05067)
Construct: Beta-amyloid 42 (Aβ42) was dissolved in dimethylsulfoxide (DMSO)
TEST: Inhibitory effect on the formation of beta-amyloid fibrils in vitro (ThT fluorescence assay)
Type: biochemical
RUN_PARAMETERS: In vitro ThT analysis (Aβ42: 25 μM); experiment of Table 2
pIC50: −log10 of the molar value.
Classification field: Condition met = pIC50 at or over 6; Condition not met = pIC50 under 6.

Solved entries (count: 4):
COc1ccc(C=Cc2cc3cc(C)ccc3o2)cc1OC | Condition not met
COc1ccc2oc(C=Cc3ccc(OC)c(OC)c3)cc2c1 | Condition not met
COc1ccc(C=Cc2cc3cc(C)ccc3o2)cc1 | Condition not met
COc1ccc(C=Cc2cc3cc(Cl)ccc3o2)cc1OC | Condition met

Ask: Could you verify whether the entry COc1ccc(C=Cc2cc3cc(Cl)ccc3o2)cc1 shows pIC50 of no less than 6?
Result: Condition not met

----------
STUDY_TARGET: beta-amyloid 42 (Aβ42) (Homo sapiens, UniProt P05067)
Construct: Beta-amyloid 42 (Aβ42) was dissolved in dimethylsulfoxide (DMSO)
TEST: Inhibitory effect on the formation of beta-amyloid fibrils in vitro (ThT fluorescence assay)
Format: biochemical
RUN_PARAMETERS: In vitro ThT analysis (Aβ42: 25 μM); experiment of Table 4
OUTCOME_MEASURE: IC50 (µM)
Supply the numeric figure in µM, leaving out any unit text.

Use the examples below as a reference point.
COc1ccc(C=Cc2cc3cc(I)ccc3o2)cc1OC [Compound 50, 5-iodo-2-(3,4-dimethoxystyryl)benzofuran] | 5.79
Nc1ccc(C=Cc2cc3cc(Cl)ccc3o2)cc1 [Compound 29, 5-chloro-2-(4-aminostyryl)benzofuran] | 1.99
CCN(CC)c1ccc(C=Cc2cc3cc(Cl)ccc3o2)cc1 [Compound 31] | 0.963

Now turn to the next molecule.
Ask: Record request: IC50 value, item COc1ccc(C=Cc2cc3cc(I)ccc3o2)cc1 [Compound 49, 5-iodo-2-(4-methoxystyryl)benzofuran]
Result: 16.8
